- Test system: human hepatocytes
- Assay Procedure: 4-ABP- and HAA-DNA adduct formation in freshly cultured human hepatocytes
- Measurement Context: human hepatocytes donor HH B; carcinogen 10 μM; 24 h incubation
Recorded Metric: DNA adduct formation, Adducts per 10^7 Bases (Adducts per 10^7 Bases)

Smiles Repr: Cc1cnc2ccc3c(nc(Nc4nc5c(=O)[nH]c(N)nc5n4[C@H]4C[C@H](O)[C@@H](CO)O4)n3C)c2n1
Readout Value: 12.4

Smiles Repr: Cn1c(Nc2nc3c(=O)[nH]c(N)nc3n2[C@H]2C[C@H](O)[C@@H](CO)O2)nc2c3cccnc3ccc21
Readout Value: 10.3

Smiles Repr: Nc1nc2c(nc(Nc3ccc(-c4ccccc4)cc3)n2[C@H]2C[C@H](O)[C@@H](CO)O2)c(=O)[nH]1
Readout Value: 150

Smiles Repr: Cn1c(Nc2nc3c(=O)[nH]c(N)nc3n2[C@H]2C[C@H](O)[C@@H](CO)O2)nc2ncc(-c3ccccc3)cc21
Readout Value: 22.0

Smiles Repr: Nc1nc2c(nc(Nc3ccc4c(n3)[nH]c3ccccc34)n2[C@H]2C[C@H](O)[C@@H](CO)O2)c(=O)[nH]1
Readout Value: 32.5
